- SUBJECT OF TEST: aldose reductase (Bos taurus, UniProt P16116)
- Construct: partially purified aldose reductase enzyme obtained from calf lens; from tissue; host or cells: calf lens
- PROCEDURE SUMMARY: Inhibition of aldose reductase enzyme activity (procedure of U.S. Pat. No. 3,821,383, based on Hayman et al.)
- Type: biochemical
- ASSAY CONDITIONS: 10^-5 M; partially purified aldose reductase from calf lens
- Text: The activity of the compounds of this invention as aldose reductase inhibitors and as agents for the treatment of diabetic cataracts may be determined by standard pharmacological tests. Such tests include, for example, measuring their ability to inhibit the enzyme activity of isolated aldose reductase, following the general procedure described in U.S. Pat. No. 3,821,383 and based on the procedure of Hayman et al., J. Biol. Chem. 240, 877 (1965). […]
Counter-ions that a name gives are not always drawn.
VALUE TYPE: inhibition at 10 µM (%)

COMPOUND | inhibition at 10 µM [%]
Cc1nc(N(C)Cc2ccc(Cl)cc2)c2ccccc2c1CC(=O)O [Example 10, Acetic Acid Hydrochloride] | 97
Cc1nc(OCc2ccc(Cl)c(Cl)c2)c2ccccc2c1CC(=O)O | 95
Cc1nc(Oc2ccc(Cl)cc2)c2ccccc2c1CC(=O)O | 91
Cc1c(CC(=O)O)c2ccccc2c(=O)n1OCc1ccc(Cl)c(Cl)c1 | 77
